# Tgt: Cannabinoid receptor 2 (Homo sapiens, UniProt P34972)
# Sequence (P34972 whole entry): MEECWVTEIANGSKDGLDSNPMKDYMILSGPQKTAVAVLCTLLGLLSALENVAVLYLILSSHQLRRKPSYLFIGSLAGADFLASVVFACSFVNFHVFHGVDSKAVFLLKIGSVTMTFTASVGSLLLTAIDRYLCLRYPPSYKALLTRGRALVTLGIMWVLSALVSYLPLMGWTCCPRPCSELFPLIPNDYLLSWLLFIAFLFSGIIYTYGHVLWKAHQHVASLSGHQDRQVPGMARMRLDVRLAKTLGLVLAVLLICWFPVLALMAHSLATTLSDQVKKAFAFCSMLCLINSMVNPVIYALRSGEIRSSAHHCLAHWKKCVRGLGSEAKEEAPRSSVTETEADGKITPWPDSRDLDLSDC
# Measurement Description: Displacement of [3H]-CP55940 from human recombinant cannabinoid CB2 receptor expressed in HEK293 cell membranes incubated for 90 mins
IC50 overview
Assay Metric: IC50 (µM)

[[record]]
molecule = "CCCCCCCN1C(=O)C2C3c4ccccc4C(c4cc(Cl)ccc43)C2C1=O (stereo not given)"
assay_metric = "IC50"
lt_gt_eq = "="
result = 6.85

[[record]]
molecule = "CCCCCCCN1C(=O)C2C3c4ccccc4C(C)(c4ccccc43)C2C1=O (stereo not given)"
assay_metric = "IC50"
lt_gt_eq = "="
result = 3.86

[[record]]
molecule = "CCCCCCCCN1C(=O)C2C3c4ccccc4C(c4ccccc43)C2C1=O (stereo not given)"
assay_metric = "IC50"
lt_gt_eq = "="
result = 8.74

[[record]]
molecule = "CCCCCCCN1C(=O)C2C3c4ccccc4C(Br)(c4ccccc43)C2C1=O (stereo not given)"
assay_metric = "IC50"
lt_gt_eq = ">"
result = 10

[[record]]
molecule = "CCCCCCCOCC12c3ccccc3C(c3ccccc31)C1C(=O)NC(=O)C12 (stereo not given)"
assay_metric = "IC50"
lt_gt_eq = "="
result = 0.9

[[record]]
molecule = "CCCCCCCN1C(=O)C2C3c4ccccc4C(c4ccccc43)C2C1=O (stereo not given)"
assay_metric = "IC50"
lt_gt_eq = "="
result = 7.94

[[record]]
molecule = "CCCCCCCOCC12c3ccccc3C(c3ccccc31)C1C(=O)N(CCCCCCC)C(=O)C12 (stereo not given)"
assay_metric = "IC50"
lt_gt_eq = ">"
result = 10

[[record]]
molecule = "CCCCCCCNCC12c3ccccc3C(c3ccccc31)C1C(=O)NC(=O)C12 (stereo not given)"
assay_metric = "IC50"
lt_gt_eq = "="
result = 3.93

[[record]]
molecule = "O=C1NC(=O)C2C3c4ccccc4C(c4ccccc43)C12 (stereo not given)"
assay_metric = "IC50"
lt_gt_eq = ">"
result = 10

[[record]]
molecule = "CCCCCCCNCC12c3ccccc3C(c3ccccc31)C1C(=O)N(CCCCCCC)C(=O)C12 (stereo not given)"
assay_metric = "IC50"
lt_gt_eq = ">"
result = 10

